target: SUMO E1 (Homo sapiens, UniProt Q9UBT2); assay: SUMO E1 inhibition: UBC9-SUMO1 conjugation by SDS gel electrophoresis; type: biochemical; details: 25 uM compound, 30 min preincubation; read-out: SUMO E1 percent inhibition of adduct formation
Sequence (Q9UBT2 whole entry): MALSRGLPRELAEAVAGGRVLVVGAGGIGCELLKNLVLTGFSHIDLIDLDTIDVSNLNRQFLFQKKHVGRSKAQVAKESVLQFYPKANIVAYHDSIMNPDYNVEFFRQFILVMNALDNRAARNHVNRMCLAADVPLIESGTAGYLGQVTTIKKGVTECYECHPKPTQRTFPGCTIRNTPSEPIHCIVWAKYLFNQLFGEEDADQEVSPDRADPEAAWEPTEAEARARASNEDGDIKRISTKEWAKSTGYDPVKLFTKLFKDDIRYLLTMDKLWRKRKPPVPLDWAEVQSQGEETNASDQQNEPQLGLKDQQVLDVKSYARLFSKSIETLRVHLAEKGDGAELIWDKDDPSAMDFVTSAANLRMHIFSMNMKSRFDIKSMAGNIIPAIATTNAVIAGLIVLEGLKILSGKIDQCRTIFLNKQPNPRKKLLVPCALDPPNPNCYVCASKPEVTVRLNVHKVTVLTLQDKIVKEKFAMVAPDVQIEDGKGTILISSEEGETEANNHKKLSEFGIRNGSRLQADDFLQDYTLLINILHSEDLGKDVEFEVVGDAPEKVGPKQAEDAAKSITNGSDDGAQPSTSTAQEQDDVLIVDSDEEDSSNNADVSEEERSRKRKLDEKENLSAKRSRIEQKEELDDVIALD
Sequence (Q9UBE0 whole entry partner): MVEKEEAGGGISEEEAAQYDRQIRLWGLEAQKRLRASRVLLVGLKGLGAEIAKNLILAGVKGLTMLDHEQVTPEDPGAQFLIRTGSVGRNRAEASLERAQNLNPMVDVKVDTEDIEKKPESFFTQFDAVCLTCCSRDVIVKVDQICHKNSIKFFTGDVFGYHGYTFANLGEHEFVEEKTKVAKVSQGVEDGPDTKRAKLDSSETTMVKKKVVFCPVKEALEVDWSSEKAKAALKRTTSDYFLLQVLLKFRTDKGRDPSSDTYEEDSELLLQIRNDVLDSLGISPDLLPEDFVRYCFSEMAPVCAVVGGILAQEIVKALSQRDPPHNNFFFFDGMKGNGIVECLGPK
property_label: inhibition at 25 µM (%)

Using the record for C=CC(=O)N1CCc2cc(Br)ccc21 [Compound 4] , state its measured inhibition at 25 µM.
10

I = C=CC(=O)N1Cc2cc(Cl)ccc2[C@@H](c2ccccn2)C1 [Compound 80]
II = C=CC(=O)N1CCc2ncncc2C1 [Compound 5]
III = C=CC(=O)N1CCc2cc(Cc3ccccc3)ccc2C1 [Compound 7]
Rank the items in ascending order with respect to inhibition at 25 µM. Response format: the labels, sorted as the prompt asks.
II, III, I
(II: 10%, III: 20%, I: 50%)

====

target: SUMO E1 (Homo sapiens); assay: SUMO E1 inhibition: UBC9-SUMO1 conjugation by SDS gel electrophoresis; type: biochemical; conditions: 9 uM compound, 30 min preincubation; read-out: SUMO E1 percent inhibition of adduct formation
property_label: inhibition at 9 µM (%)

Using the record for C#CC(=O)N1Cc2sc(Cl)cc2[C@@H](c2ccccc2C)C1 [Compound 93] , state its measured inhibition at 9 µM.
95

I = Cc1ccccc1[C@H]1CN(C(=O)CBr)Cc2sc(Cl)cc21 [Compound 107]
II = C=CC(=O)N1Cc2ccc(Br)cc2[C@@H](c2ccccc2Cl)C1 [Compound 46]
Between I and II , which one shows the smaller inhibition at 9 µM number? Use the label to indicate which entry you chose.
II
(II: 50%, I: 100%)

====

Target: SUMO E1 (Homo sapiens, UniProt Q9UBT2)
Experiment: SUMO E1 inhibition: UBC9-SUMO1 conjugation by SDS gel electrophoresis
Assay type: biochemical
Conditions: 27 uM compound, 30 min preincubation; read-out: SUMO E1 percent inhibition of adduct formation
Method: Compounds are evaluated for their inhibitory effect on activating enzymes (E1) of ubiquitin, SUMO, Nedd8, Urm1, ISG15 or Atg7 using previously reported methods and protocols. […] Compounds are tested in the following manner. […] The UBC9-SUMO1 conjugation is analyzed via SDS gel electrophoresis. The percent inhibition is measured by the intensity of the UBC9-SUMO1 band compared to the no compound control. […]
property_label: inhibition at 27 µM (%)

Using the record for C=CC(=O)N1Cc2sc(Cl)cc2[C@@H](C2CCCC2)C1 , state its measured inhibition at 27 µM.
100

Using the record for Cc1ccccc1[C@H]1CN(C(=O)CCl)Cc2sc(Cl)cc21 , state its measured inhibition at 27 µM.
80

Using the record for C=CC(=O)N1Cc2cc(Br)sc2[C@@H](c2ccccc2C)C1 , state its measured inhibition at 27 µM.
80

Using the record for C=CC(=O)N1Cc2sc(Cl)cc2[C@@H](c2ccccc2C2CC2)C1 , state its measured inhibition at 27 µM.
95

====

target: Atg7 (Homo sapiens, UniProt O95352); test: Atg7 activating enzyme (E1) inhibition; type: biochemical; details: 25 uM compound, 60 min preincubation; read-out: Atg7 percent inhibition of adduct formation
Sequence (O95352 whole entry, species assumed): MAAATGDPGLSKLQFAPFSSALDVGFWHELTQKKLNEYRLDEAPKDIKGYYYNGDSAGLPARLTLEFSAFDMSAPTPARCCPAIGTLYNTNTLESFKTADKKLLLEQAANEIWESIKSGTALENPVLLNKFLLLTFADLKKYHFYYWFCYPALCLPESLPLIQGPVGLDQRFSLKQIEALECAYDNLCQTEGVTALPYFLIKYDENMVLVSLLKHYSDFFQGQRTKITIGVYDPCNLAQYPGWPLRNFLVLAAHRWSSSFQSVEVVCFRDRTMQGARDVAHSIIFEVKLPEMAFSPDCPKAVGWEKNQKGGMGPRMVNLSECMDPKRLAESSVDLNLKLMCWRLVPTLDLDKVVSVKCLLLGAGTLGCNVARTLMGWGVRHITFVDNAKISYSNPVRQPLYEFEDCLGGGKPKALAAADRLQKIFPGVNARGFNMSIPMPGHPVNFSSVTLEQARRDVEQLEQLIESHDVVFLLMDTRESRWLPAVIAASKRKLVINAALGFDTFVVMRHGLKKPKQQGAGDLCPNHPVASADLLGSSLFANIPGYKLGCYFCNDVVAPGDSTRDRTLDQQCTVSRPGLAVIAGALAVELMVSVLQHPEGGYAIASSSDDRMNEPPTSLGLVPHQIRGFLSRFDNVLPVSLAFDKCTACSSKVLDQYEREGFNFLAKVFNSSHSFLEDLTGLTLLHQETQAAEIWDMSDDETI
Below is a list of entries, each paired with its recorded inhibition at 25 µM value.

Using the record for C=C(F)C(=O)N1Cc2sc(Cl)cc2[C@@H](c2ccccc2C)C1 , state its measured inhibition at 25 µM.
< 1%

Using the record for C=CC(=O)N1Cc2sc(Cl)cc2[C@@H](c2ccccc2CC2CCOCC2)C1 , state its measured inhibition at 25 µM.
< 1%

Using the record for C=CC(=O)N1Cc2oc(C)cc2[C@@H](c2ccccc2)C1 , state its measured inhibition at 25 µM.
< 1%

***
Using the record for CCC(=O)Nc1ccc2cc(Br)ccc2c1 , state its measured inhibition at 25 µM.
< 1%
